test system: Klebsiella pneumoniae; test: Antibacterial activity against Carbapenem-resistant Klebsiella pneumoniae BM1 clinical isolates assessed as reduction in bacterial growth by broth microdilution method; assay type: functional
So I've got a bunch of compounds here, and I need their log10 of MIC values.
Please keep in mind that the values are log10 of MIC expressed in µg/mL.

Previously resolved entries follow.
TEST_SMILES	log10 of MIC
CC[C@H](C)CCCCC(=O)N[C@@H](CCN)C(=O)N[C@H](C(=O)N[C@@H](CCN)C(=O)N[C@H]1CCNC(=O)[C@H]([C@@H](C)O)NC(=O)[C@H](CCN)NC(=O)[C@H](CCN)NC(=O)[C@H](CC(C)C)NC(=O)[C@@H](Cc2ccccc2)NC(=O)[C@H](CCN)NC1=O)[C@@H](C)O	-0.30
CC[C@H](C)CCCCC(=O)N[C@@H](CCN)C(=O)N[C@H](C(=O)N[C@@H](CCN)C(=O)N[C@H]1CCNC(=O)[C@H](Cc2c[nH]c3ccccc23)NC(=O)[C@H](CCN)NC(=O)[C@H](CCN)NC(=O)[C@H](CC(C)C)NC(=O)[C@@H](Cc2ccccc2)NC(=O)[C@H](CCN)NC1=O)[C@@H](C)O	0.60
CC[C@H](C)CCCCC(=O)N[C@@H](CCN)C(=O)N[C@H](C(=O)N[C@@H](CCN)C(=O)N[C@H]1CCNC(=O)[C@H](CS)NC(=O)[C@H](CCN)NC(=O)[C@H](CCN)NC(=O)[C@H](CC(C)C)NC(=O)[C@@H](Cc2ccccc2)NC(=O)[C@H](CCN)NC1=O)[C@@H](C)O	1.20

Please look at the items below and tell me log10 of MIC for each one, in order.
1. C/C=C1/NC(=O)[C@H](CCN)NC(=O)[C@H](CCN)NC(=O)[C@H](CC(C)C)NC(=O)[C@@H](Cc2ccccc2)NC(=O)[C@H](CCN)NC(=O)[C@@H](NC(=O)[C@H](CCN)NC(=O)[C@@H](NC(=O)[C@H](CCN)NC(=O)CCCC[C@@H](C)CC)[C@@H](C)O)CCNC1=O
2. CC[C@H](C)CCCCC(=O)N[C@@H](CCN)C(=O)N[C@H](C(=O)N[C@@H](CCN)C(=O)N[C@H]1CCNC(=O)[C@H](C)NC(=O)[C@H](CCN)NC(=O)[C@H](CCN)NC(=O)[C@H](CC(C)C)NC(=O)[C@@H](Cc2ccccc2)NC(=O)[C@H](CCN)NC1=O)[C@@H](C)O

1. 0.90
2. 0.30

----------
tested on: Acinetobacter baumannii; test: Antibacterial activity against polymyxin-susceptible Acinetobacter baumannii ATCC 17978 clinical isolates assessed as reduction in bacterial growth by broth microdilution method; type: functional
Provide the reported MIC of each item.
One number for each entry, in µg/mL.

Past entries and their recorded results:
TEST_SMILES	VALUE
CC[C@H](C)CCCCC(=O)N[C@@H](CCN)C(=O)N[C@H](C(=O)N[C@@H](CCN)C(=O)N[C@H]1CCNC(=O)[C@H](CS)NC(=O)[C@H](CCN)NC(=O)[C@H](CCN)NC(=O)[C@H](CC(C)C)NC(=O)[C@@H](Cc2ccccc2)NC(=O)[C@H](CCN)NC1=O)[C@@H](C)O	16
CC[C@H](C)CCCCC(=O)N[C@@H](CCN)C(=O)N[C@H](C(=O)N[C@@H](CCN)C(=O)N[C@H]1CCNC(=O)[C@H](Cc2ccccc2)NC(=O)[C@H](CCN)NC(=O)[C@H](CCN)NC(=O)[C@H](CC(C)C)NC(=O)[C@@H](Cc2ccccc2)NC(=O)[C@H](CCN)NC1=O)[C@@H](C)O	2

Look up MIC for the entries below, preserving their order.
1. CC[C@H](C)CCCCC(=O)N[C@@H](CCN)C(=O)N[C@H](C(=O)N[C@@H](CCN)C(=O)N[C@H]1CCNC(=O)[C@H](CC(N)=O)NC(=O)[C@H](CCN)NC(=O)[C@H](CCN)NC(=O)[C@H](CC(C)C)NC(=O)[C@@H](Cc2ccccc2)NC(=O)[C@H](CCN)NC1=O)[C@@H](C)O
2. CC[C@H](C)CCCCC(=O)N[C@@H](CCN)C(=O)N[C@H](C(=O)N[C@@H](CCN)C(=O)N[C@H]1CCNC(=O)[C@H](C(C)(C)C)NC(=O)[C@H](CCN)NC(=O)[C@H](CCN)NC(=O)[C@H](CC(C)C)NC(=O)[C@@H](Cc2ccccc2)NC(=O)[C@H](CCN)NC1=O)[C@@H](C)O

16
4
